- studySystem: Somatostatin receptor type 1 (Homo sapiens, UniProt P30872)
- Sequence (P30872 whole entry): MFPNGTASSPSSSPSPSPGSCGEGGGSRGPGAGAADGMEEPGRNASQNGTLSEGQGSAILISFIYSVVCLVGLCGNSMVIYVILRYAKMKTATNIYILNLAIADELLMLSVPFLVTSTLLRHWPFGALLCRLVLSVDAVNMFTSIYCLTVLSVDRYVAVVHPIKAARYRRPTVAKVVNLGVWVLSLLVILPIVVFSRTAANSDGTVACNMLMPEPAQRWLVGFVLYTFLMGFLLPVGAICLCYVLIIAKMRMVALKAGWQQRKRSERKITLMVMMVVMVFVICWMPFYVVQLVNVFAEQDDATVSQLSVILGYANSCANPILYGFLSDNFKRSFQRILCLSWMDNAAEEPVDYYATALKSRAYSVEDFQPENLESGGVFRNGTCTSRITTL
- assayNotes: Displacement of [3-125l-Tyr]-somatostatin-(1 -14) from human recombinant somatostatin 1 receptor expressed in CHO cell membranes incubated for 180 mins
quantityName: Ki

Bench note: what Ki did CC(C)(NC(=O)[C@H]1[C@@H]2CNC[C@@H]21)c1noc2c(F)cccc12 show?
> 9.09 µM
